All values here come from the supplement of paper PMC10681739.

Please respond with reported RUNX1 binding intensity for every item in the list.
# target-desc: RUNX1 (UniProt Q01196)
# Sequence (Q01196 whole entry): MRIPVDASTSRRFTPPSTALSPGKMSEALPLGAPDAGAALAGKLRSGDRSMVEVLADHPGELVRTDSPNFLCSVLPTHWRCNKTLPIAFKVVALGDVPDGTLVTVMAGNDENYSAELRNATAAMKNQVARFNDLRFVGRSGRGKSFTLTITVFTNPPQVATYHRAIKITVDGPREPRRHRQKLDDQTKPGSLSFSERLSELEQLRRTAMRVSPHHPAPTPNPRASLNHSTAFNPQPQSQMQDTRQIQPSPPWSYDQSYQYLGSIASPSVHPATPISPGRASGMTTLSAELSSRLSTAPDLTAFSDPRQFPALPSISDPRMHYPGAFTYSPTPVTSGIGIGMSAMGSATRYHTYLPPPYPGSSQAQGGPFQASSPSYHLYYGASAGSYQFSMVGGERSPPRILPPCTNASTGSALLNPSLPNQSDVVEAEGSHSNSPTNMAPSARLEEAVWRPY
# procedure-text: RUNX1 binding intensity (PBM fluorescence) in presence of ETS1, normalised to RUNX1-only experiment (arbitrary fluorescence units); higher = stronger binding;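 note: Full-length recombinant human ETS1 or RUNX1 bound to double-stranded 36-bp genomic probes on microarrays, detected by protein-specific primary antibody and Alexa488 secondary, spot fluorescence as median of four replicate spots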
# condition-summary: RUNX1 concentration 2 nM; ETS1 concentration 25 nM
# answer = number (no unit)

Asked: Reported RUNX1 binding intensity, sequence `TTCATAAAGGAGAGGAAACCTGACCACGACAGAAAG` : ____
Given back: 754

Asked: Also `TCGCTTCCGGTGTCGGTTACAGACTGTGGTTGCCAT` , if possible.
Given back: 3330

Asked: Another: `GAAGTCACTCAGGGAGGAAACCACAGGGCCGGTCCG`
Given back: 863

Asked: Check `GACTTGGGGGAAGTGGCTTGGTTTGCGTGGTTTCTC` too.
Given back: 1060

Asked: Follow-up entry: `ACGTTTCGGGGTTTCCGGGCCAGCGGTTTCGGGCGC`
Given back: 2050

Asked: Can you check `TCCAGTGCCGCCGCCGGAAAACCGCAGCGGCGGCGG` next?
Given back: 10200

Asked: And `CCCCACATCCGGGGGCCGGGGCCGGGCTGTGGGCTT` ?
Given back: 2140

Asked: Next up: `GTAAAAGAGGAAGTAACACCTCCTTGCGGTTGAGAC`
Given back: 3280

Asked: Do the same for `GTCTTACTTCCTGTCCCCGCCCACCGCGACTGTCTT` please
Given back: 3600

Asked: Now try `CCGCCACCGGAAGCGCCCTCCTAATCCCCGCAGCGC` .
Given back: 1920

Asked: // query: `GATTTGTCACAGGAAGTACCCACAGGCCAAGAAGTG`
Given back: 1260

Asked: Repeat for the following sequence: `GGGCTATTGTTTCCTCCCCCATGTGACCACAGCCTC`
Given back: 1290

Asked: Do the same for `GCCCCCGGAAGCTGTCGCCCCGTGCGGTGTGTGCTG` please
Given back: 1330

Asked: Try this sequence next: `AGAGTCTTTTTTCCTGAGCGTTTGCGGTTTTGACTT`
Given back: 19500

Asked: And what about the sequence `CCAACAGTACCCTTCCTCCCTTAACCACAAGACTGA` ?
Given back: 6290
